target_desc: 5-HT2A receptor (Homo sapiens (Human), UniProt P28223)
Sequence (P28223 whole entry): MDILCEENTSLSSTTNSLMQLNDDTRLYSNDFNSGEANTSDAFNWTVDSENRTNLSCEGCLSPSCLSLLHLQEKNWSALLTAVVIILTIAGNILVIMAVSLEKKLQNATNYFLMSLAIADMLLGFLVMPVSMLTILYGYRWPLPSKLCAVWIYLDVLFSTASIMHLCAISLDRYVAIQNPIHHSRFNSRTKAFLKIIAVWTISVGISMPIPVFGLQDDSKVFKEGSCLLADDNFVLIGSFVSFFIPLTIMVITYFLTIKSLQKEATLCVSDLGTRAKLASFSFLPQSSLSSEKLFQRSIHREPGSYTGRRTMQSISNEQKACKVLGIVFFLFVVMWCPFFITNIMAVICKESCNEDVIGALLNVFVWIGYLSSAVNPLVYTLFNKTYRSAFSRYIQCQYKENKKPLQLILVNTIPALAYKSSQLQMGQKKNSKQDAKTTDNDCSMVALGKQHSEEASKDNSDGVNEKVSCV
protocol: Screening for 5-HT2A inverse agonistic activity (NIH3T3-5-HT2A R cells, Bright-Glo luciferase, 120 h)
Format: cell-based
assay_conditions: NIH3T3-5HT2AR cells, cell inhibition rate
assay_readout: IC50 (nM)
Answers are plain numbers, in nM.

INSERT INTO results (smiles_text, endpoint_unit, reported_measurement) VALUES
  ('CCOc1ccc(CNC(=O)N(Cc2ccc(F)cn2)C2CCN(C)CC2)cc1', 'nM', 7.3),
  ('CN1CCC(N(Cc2ccc(F)cc2)C(=O)NCc2ccc(OCC(F)F)cc2)CC1', 'nM', 6.83),
  ('CC(C)COc1ccc(CNC(=O)N(Cc2ccc(F)cn2)C2CCN(C)CC2)nc1', 'nM', 26.4),
  ('CC1(C)Cc2cc(CNC(=O)N(Cc3ccc(F)cn3)C3CCNCC3)ccc2O1', 'nM', 5.64),
  ('CN1CCC(N(Cc2ncc(F)cc2F)C(=O)NCc2ccc(OCCC(F)F)cc2)CC1', 'nM', 10.6);

From here, focus on the item given below.
Field IC50 (entry "CN1CCC(N(Cc2ncc(F)cc2F)C(=O)NCc2ccc3c(c2)CC(C)(C)O3)CC1" ) reads 31.2

====

target_desc: hERG potassium channels (Homo sapiens (Human), UniProt Q12809)
Sequence (Q12809 whole entry): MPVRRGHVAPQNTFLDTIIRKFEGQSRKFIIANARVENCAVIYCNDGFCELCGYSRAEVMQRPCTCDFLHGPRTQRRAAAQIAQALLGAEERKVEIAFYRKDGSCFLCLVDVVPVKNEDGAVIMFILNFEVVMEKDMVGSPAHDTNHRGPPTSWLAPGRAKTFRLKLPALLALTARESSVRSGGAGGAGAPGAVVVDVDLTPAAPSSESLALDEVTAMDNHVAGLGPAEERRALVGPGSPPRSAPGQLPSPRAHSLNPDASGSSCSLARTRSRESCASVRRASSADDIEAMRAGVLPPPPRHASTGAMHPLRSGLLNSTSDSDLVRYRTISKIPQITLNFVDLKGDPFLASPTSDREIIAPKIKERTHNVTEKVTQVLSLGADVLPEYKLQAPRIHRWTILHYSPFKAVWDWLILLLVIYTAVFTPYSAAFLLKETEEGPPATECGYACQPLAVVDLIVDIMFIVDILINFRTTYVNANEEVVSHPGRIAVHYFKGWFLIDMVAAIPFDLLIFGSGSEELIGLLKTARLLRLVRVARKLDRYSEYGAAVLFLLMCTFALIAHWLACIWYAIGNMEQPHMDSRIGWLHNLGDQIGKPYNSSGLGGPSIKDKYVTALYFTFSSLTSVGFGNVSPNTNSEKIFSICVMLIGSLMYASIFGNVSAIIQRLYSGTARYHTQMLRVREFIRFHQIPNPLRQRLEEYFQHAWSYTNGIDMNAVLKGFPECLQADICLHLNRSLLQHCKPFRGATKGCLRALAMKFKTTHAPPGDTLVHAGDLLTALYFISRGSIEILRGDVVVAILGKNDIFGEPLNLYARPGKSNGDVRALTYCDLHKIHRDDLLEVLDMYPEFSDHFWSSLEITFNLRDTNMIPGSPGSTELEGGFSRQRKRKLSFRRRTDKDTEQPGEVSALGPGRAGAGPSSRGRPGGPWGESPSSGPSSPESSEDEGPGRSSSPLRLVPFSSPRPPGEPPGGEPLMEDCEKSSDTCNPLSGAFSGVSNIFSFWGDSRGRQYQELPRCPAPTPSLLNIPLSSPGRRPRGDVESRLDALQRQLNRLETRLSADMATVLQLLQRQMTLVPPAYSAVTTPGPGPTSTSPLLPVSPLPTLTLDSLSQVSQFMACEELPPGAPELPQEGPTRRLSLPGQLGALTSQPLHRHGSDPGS
protocol: hERG inhibitory activity, whole-cell patch clamp in CHO-hERG cells
assay_conditions: read-out: hERG inhibitory activity IC50; CHO-hERG cells, whole-cell patch clamp, tail current at -50 mV
Give measured IC50 for each item. Keep answers brief.
One number for each entry, in nM.

INSERT INTO measurements (smiles_text, assay_readout, endpoint_unit, reported_measurement) VALUES
  ('CC(C)COc1ccc(CNC(=O)N(Cc2ncc(F)cn2)C2CCN(C)CC2)cc1', 'IC50', 'nM', 1300);

// each listed molecule needs a value for IC50
1. CCOc1ccc(CNC(=O)N(Cc2ccc(F)cn2)C2CCN(C)CC2)cc1
2. CC(C)COc1ccc(CNC(=O)N(Cc2ccc(F)cn2)C2CCN(C)CC2)cc1

Response:
2430
410

====

target_desc: 5-HT2A receptor (Homo sapiens (Human))
protocol: Screening for 5-HT2A inverse agonistic activity (NIH3T3-5-HT2A R cells, Bright-Glo luciferase, 120 h)
Assay type: cell-based
assay_conditions: NIH3T3-5HT2AR cells, cell inhibition rate
assay_readout: IC50 (nM)
Numbers only, in nM.

INSERT INTO results (molecule, target_desc, assay_readout, reported_measurement) VALUES
  ('CN1CCC(N(Cc2ccc(F)cn2)C(=O)NCc2ccc(OCC(F)F)cc2)CC1', '5-HT2A receptor (Homo sapiens (Human))', 'IC50', 6.01),
  ('CC(C)OCc1ccc(CNC(=O)N(Cc2ccc(F)cn2)C2CCN(C)CC2)cc1', '5-HT2A receptor (Homo sapiens (Human))', 'IC50', 42.8);

// each listed molecule needs a value for IC50
1. CC(C)CCc1ccc(CNC(=O)N(Cc2ccc(F)cn2)C2CCN(C)CC2)cc1
2. CC(C)COc1ccc(CNC(=O)N(Cc2ccc(F)cc2)C2CCN(C)CC2)nc1
3. CC(C)C(O)Cc1ccc(CNC(=O)N(Cc2ccc(F)cc2)C2CCN(C)CC2)cc1 (stereo not shown)
4. CN1CCC(N(Cc2ncc(F)cc2F)C(=O)NCc2ccc(OC(C)(C)C)cc2)CC1
5. CC(C)OCc1ccc(CNC(=O)N(Cc2ccc(F)cc2)C2CCN(C)CC2)cc1

Response:
1: 42.7; 2: 49.9; 3: 16.9; 4: 30.1; 5: 34.1
